Target: T1, Human CD93 recombinant protein (Sino Biological Inc, Catalog #12589-H08H) (human, UniProt Q9NPY3 22-580)
T1 construct: Biotinylated (EZ-LINK NHS-PEG4 biotin) in the BLI assays; also called hCD93; His-tagged human CD93
T1 sequence (looked up): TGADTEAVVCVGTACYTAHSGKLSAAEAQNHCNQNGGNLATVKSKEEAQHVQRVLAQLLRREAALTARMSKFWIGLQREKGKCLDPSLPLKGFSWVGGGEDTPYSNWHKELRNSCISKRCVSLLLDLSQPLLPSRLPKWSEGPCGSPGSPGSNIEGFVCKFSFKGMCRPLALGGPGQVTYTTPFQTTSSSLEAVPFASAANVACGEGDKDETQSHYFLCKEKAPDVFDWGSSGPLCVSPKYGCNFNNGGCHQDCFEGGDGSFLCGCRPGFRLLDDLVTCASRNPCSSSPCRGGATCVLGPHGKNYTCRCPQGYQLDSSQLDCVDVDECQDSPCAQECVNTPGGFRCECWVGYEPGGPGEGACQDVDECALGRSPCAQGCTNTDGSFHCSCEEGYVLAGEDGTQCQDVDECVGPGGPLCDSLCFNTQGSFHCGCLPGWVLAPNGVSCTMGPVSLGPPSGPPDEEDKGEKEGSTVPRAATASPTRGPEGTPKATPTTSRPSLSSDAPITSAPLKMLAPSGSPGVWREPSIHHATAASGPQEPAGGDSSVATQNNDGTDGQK
Assay: summary table, column Octet (hCD93)
readout.kind: Kd (pM)
Provide only the numeric value, understood in pM.

Please give measured Kd of the following entry: 7F3-hIgG1 (recombinant chimeric 7F3) (antibody, V domains shown, also called chimeric 7F3-hIgG1; recombinant 7F3) VH: QVQLQQSGADLVRPGASVKLSCKASGYTFTDYEMHWVKQTPVYGLEWIGGIDPETGDTAYNQNFKGKATLTADKSSSAAYMELRSLTSEDSAVYYCTNYGNLYYYAMDYWGQGTSVTVSS VL: ENVLTQSPAIMSASPGEKVTMTCRASSSVSSSYLHWYQQKSGASPKLWIYSTSNLAFGVPARFSGSGSGTSYSLTISSVEAEDAATYYCQQYSGYPLTFGSGTKLEIK 588
